Test: Metabolic stability in human liver microsomes
Conditions: maximal oral bioavailability calculated with well stirred liver model; 1 µM compound, 0.5 mg/mL protein; '(stable)' given beside 100
experimental-endpoint: Fmax, human microsomes (%)
Numbers only, in %.

Example results:
>  <smiles-representation>
CC(C)(O)C1CCN(c2nc(N[C@H]3C[C@H](S(C)(=O)=O)C3)nc3c2cnn3-c2cccc(C(F)F)c2)CC1

>  <unit-tag>
%

>  <obs-value>
81

$$$$
>  <smiles-representation>
CC(C)(O)CC1CN(c2nc(N[C@H]3C[C@H](S(C)(=O)=O)C3)nc3c2cnn3-c2cccc(C(F)(F)F)c2)C1

>  <unit-tag>
%

>  <obs-value>
82

$$$$
>  <smiles-representation>
CS(=O)(=O)[C@H]1C[C@H](Nc2nc(N3CC(N4CCOCC4)C3)c3cnn(-c4cccc(C(F)(F)F)c4)c3n2)C1

>  <unit-tag>
%

>  <obs-value>
95

$$$$

Give Fmax, human microsomes for each listed item.
1. O=C1C[C@H](Nc2nc(N3CC(CC(=O)N4CCOCC4)C3)c3cnn(-c4cccc(C(F)(F)F)c4)c3n2)CN1
2. O=C1CCCN1C1CN(c2nc(N[C@H]3C[C@H](O)C3)nc3c2cnn3-c2cccc(C(F)(F)F)c2)C1
3. CC(C)(O)CC1CN(c2nc(N[C@H]3C[C@H](S(C)(=O)=O)C3)nc3c2cnn3-c2cccc(OC(F)F)c2)C1
4. OC1(CN2CCCC2)CCN(c2nc(N[C@H]3C[C@@H](O)C3)nc3c2cnn3-c2cccc(C(F)(F)F)c2)CC1
5. C[C@]1(O)C[C@H](Nc2nc(N3C[C@@H](O)[C@H](O)C3)c3cnn(-c4cccc(C(F)(F)F)c4)c3n2)C1
6. CS(=O)(=O)[C@H]1C[C@H](Nc2nc(N3C[C@@H](O)[C@H](F)C3)c3cnn(-c4cccc(C(F)F)c4)c3n2)C1
7. O=C1C[C@H](Nc2nc(N3CCC(N4CCOCC4)CC3)c3cnn(-c4cccc(C(F)(F)F)c4)c3n2)CN1
8. CC1(N2CCOCC2)CN(c2nc(N[C@H]3C[C@@H](O)C3)nc3c2cnn3-c2cccc(C(F)(F)F)c2)C1

1. 81
2. 98
3. 58
4. 84
5. 88
6. 94
7. 87
8. 77

====

Target: human IRAK4 (Homo sapiens)
Sequence (Q9NWZ3 1-460): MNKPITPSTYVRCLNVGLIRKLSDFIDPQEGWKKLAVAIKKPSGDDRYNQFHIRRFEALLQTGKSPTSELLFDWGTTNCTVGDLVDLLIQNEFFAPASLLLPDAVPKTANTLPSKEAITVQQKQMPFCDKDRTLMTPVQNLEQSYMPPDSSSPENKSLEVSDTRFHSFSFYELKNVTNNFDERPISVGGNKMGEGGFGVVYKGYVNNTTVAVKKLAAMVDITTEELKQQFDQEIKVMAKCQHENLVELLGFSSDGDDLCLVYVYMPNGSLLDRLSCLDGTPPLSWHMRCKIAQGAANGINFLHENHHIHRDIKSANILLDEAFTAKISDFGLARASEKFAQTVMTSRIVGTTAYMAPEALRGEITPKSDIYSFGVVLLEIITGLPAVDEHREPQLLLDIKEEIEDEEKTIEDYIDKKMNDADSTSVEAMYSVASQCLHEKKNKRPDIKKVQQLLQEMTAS
experimental-endpoint: pIC50
Numbers only, as −log10 of the molar value.

Example results:
>  <compound>
NC1(C2CCN(c3nc(NC4CCS(=O)(=O)CC4)nc4c3cnn4-c3cccc(C(F)(F)F)c3)CC2)CC1 [Example I-62]

>  <pIC50>
8.59

$$$$
>  <compound>
CC(C)(O)CC1CN(c2nc(N[C@H]3C[C@H](S(C)(=O)=O)C3)nc3c2cnn3-c2cccc(OC(F)F)c2)C1 [IV-4]

>  <pIC50>
8.32

$$$$
>  <compound>
CC(C)(O)C1CCN(c2nc(N[C@H]3CNC(=O)C3)nc3c2cnn3-c2cccc(C(F)(F)F)c2)CC1 [Example I-2-2]

>  <pIC50>
7.50

$$$$
>  <compound>
CN1CC(Nc2nc(N3CCC(C(C)(C)O)CC3)c3cnn(-c4cccc(C(F)(F)F)c4)c3n2)CC1=O (stereo not drawn) [Example I-8]

>  <pIC50>
7.38

$$$$

Give pIC50 for each listed item.
1. O=C1C[C@@H](Nc2nc(N3CC(N4CCOCC4)C3)c3cnn(-c4cccc(C(F)(F)F)c4)c3n2)CN1 [Example I-1-2]
2. CC(C)(O)CC1CN(c2nc(NC3CN(S(C)(=O)=O)C3)nc3c2cnn3-c2cccc(C(F)F)c2)C1 [II-14]
3. O[C@H]1C[C@H](Nc2nc(N3CC(N4CC(F)C4)C3)c3cnn(-c4cccc(C(F)(F)F)c4)c3n2)C1 [Example I-119]
4. CC(C)(O)C1CCN(c2nc(N[C@@H]3CN4CCC3CC4)nc3c2cnn3-c2cccc(C(F)(F)F)c2)CC1 [Example I-64-2]
5. O=S1(=O)CC[C@H](Nc2nc(N3CC(N4CCOCC4)C3)c3cnn(-c4cccc(C(F)(F)F)c4)c3n2)C1 [Example I-34]
6. CC(C)(O)C1CCN(c2nc(N[C@H]3CN4CCC3CC4)nc3c2cnn3-c2cccc(C(F)(F)F)c2)CC1 [Example I-64-1]
7. CCS(=O)(=O)N1CC(Nc2nc(N3CC(CC(C)(C)O)C3)c3cnn(-c4cccc(C(F)F)c4)c3n2)C1 [II-28]
8. CCC1(O)CN(c2nc(N[C@H]3CCN(C)C3)nc3c2cnn3-c2cccc(C(F)(F)F)c2)C1 [Example I-18]

[7.07, 8.15, 7.78, 7.23, 7.07, 8.07, 7.40, 7.74]

====

Experiment: Metabolic stability in human liver microsomes
Settings: hepatic in vivo blood clearance calculated with well stirred liver model; 1 µM compound; '(stable)' given beside < 0.01
experimental-endpoint: CLblood, human microsomes (mL/min/kg)
One number for each entry, in mL/min/kg.

Example results:
>  <smiles-representation>
CC(C)(O)CC1CN(c2nc(NC3CN(S(C)(=O)=O)C3)nc3c2cnn3-c2cccc(C(F)(F)F)c2)C1

>  <unit-tag>
mL/min/kg

>  <CLblood, human microsomes>
0.33

$$$$
>  <smiles-representation>
CC(C)(O)C1CCN(c2nc(N[C@H]3C[C@H](S(C)(=O)=O)C3)nc3c2cnn3-c2cccc(C(F)F)c2)CC1

>  <unit-tag>
mL/min/kg

>  <CLblood, human microsomes>
4.17

$$$$
>  <smiles-representation>
CS(=O)(=O)[C@H]1C[C@H](Nc2nc(N3C[C@@H](O)[C@H](F)C3)c3cnn(-c4cccc(C(F)(F)F)c4)c3n2)C1

>  <unit-tag>
mL/min/kg

>  <CLblood, human microsomes>
4.17

$$$$

Would you kindly look at the next entry?
Recall and state the measured CLblood, human microsomes for "O[C@@H]1CN(c2nc(N[C@H]3C[C@H](O)C3)nc3c2cnn3-c2cccc(C(F)(F)F)c2)C[C@H]1F" . 9.5

====

Test: Metabolic stability in human liver microsomes
Details: maximal oral bioavailability calculated with well stirred liver model; 1 µM compound, 0.5 mg/mL protein; '(stable)' given beside 100
Give measured Fmax, human microsomes for each item. Keep answers brief.
Give bare numbers, in %.

>  <molecule>
CC(C)(O)C1CCN(c2nc(NC3CCS(=O)(=O)CC3)nc3c2cnn3-c2cccc(C(F)F)c2)CC1

>  <experimental-endpoint>
Fmax, human microsomes

>  <unit-tag>
%

>  <obs-value>
93

$$$$

Give Fmax, human microsomes for each listed item.
1. CC1(N2CCOCC2)CN(c2nc(NC3CCS(=O)(=O)CC3)nc3c2cnn3-c2cccc(C(F)(F)F)c2)C1
2. CC1(N2CCOCC2)CN(c2nc(N[C@H]3C[C@H](S(C)(=O)=O)C3)nc3c2cnn3-c2cccc(C(F)(F)F)c2)C1

48
74

Give Fmax, human microsomes for each listed item.
1. CC1(O)CCN(C2CN(c3nc(N[C@H]4C[C@@](C)(O)C4)nc4c3cnn4-c3cccc(C(F)(F)F)c3)C2)CC1
2. CC(C)(O)C1CCN(c2nc(NC3CCS(=O)(=O)C3)nc3c2cnn3-c2cccc(C(F)(F)F)c2)CC1 (single isomer, unassigned; (+))

1: 90; 2: 89

Give Fmax, human microsomes for each listed item.
1. CC(C)(O)C1CCN(c2nc(N[C@H]3CCS(=O)(=O)C3)nc3c2cnn3-c2cccc(C(F)F)c2)CC1
2. O=C(CC1CN(c2nc(NC3CCS(=O)(=O)CC3)nc3c2cnn3-c2cccc(C(F)F)c2)C1)N1CCOCC1
3. C[C@H]1C[C@H](Nc2nc(N3CCC(C(C)(C)O)CC3)c3cnn(-c4cccc(C(F)(F)F)c4)c3n2)CN1
4. O[C@H]1C[C@@H](Nc2nc(N3CC(N4CCOCC4)C3)c3cnn(-c4cccc(C(F)(F)F)c4)c3n2)C1
5. CC1(N2CCOCC2)CN(c2nc(N[C@H]3C[C@H](S(C)(=O)=O)C3)nc3c2cnn3-c2cccc(C(F)F)c2)C1
6. C[C@@]1(O)CCN(c2nc(N[C@H]3C[C@H](S(C)(=O)=O)C3)nc3c2cnn3-c2cccc(C(F)F)c2)C1
7. CCS(=O)(=O)N1CC(Nc2nc(N3CCC(C(C)(C)O)CC3)c3cnn(-c4cccc(C(F)F)c4)c3n2)C1
8. CCC1(O)CN(c2nc(N[C@H]3C[C@H](S(C)(=O)=O)C3)nc3c2cnn3-c2cccc(C(F)(F)F)c2)C1

[86, 68, 95, 79, 95, 93, 78, 73]

// provenance: patent EP3800188A1
